- assay-target: Metabotropic glutamate receptor 8 (Rattus norvegicus)
- assay-notes: mGluR8 Gi/Go-coupled signaling modulation – cell-based, rat, thallium flux, HTS, primary screen (AID 488969)
- experimental-conditions: HEK293 rat mGluR8, GIRK thallium flux, FluoZin2; at 10 µM; stronger effect = higher value
Whole data set: some 110,000 compounds, median “z-score” near -0.1, cut for the highest 2% near 2. The list comes from a sample in which the highest values are over-represented; it also holds close analogues and randomly drawn compounds.
Param threshold (-0.2) applies to z-score; output Criterion met when value >= threshold, Criterion not met when value < threshold.

See these solved cases before continuing.
Challenge: Is it the case that O=C(c1cc2nc(-c3ccccc3)cc(-c3ccccc3)n2n1)N1CCC2(CC1)OCCO2 has z-score reaching or exceeding -0.2?
Response given: Criterion not met

Challenge: Is it the case that c1ccc(C2NCc3ccccc3-n3cccc32)cc1 (stereo unspecified) has z-score reaching or exceeding -0.2?
Response given: Criterion not met

Challenge: Is it the case that COC(=O)c1ccccc1-n1c(C)nc2ccccc2c1=O has z-score reaching or exceeding -0.2?
Response given: Criterion met

Next:
Challenge: Is it the case that CCCCCn1c(=O)c(C(=O)Nc2c(C)n(C)n(-c3ccccc3)c2=O)c(O)c2ccccc21 has z-score reaching or exceeding -0.2?
Response given: Criterion not met

Challenge: Is it the case that O=C(NC(Cc1ccccc1)C(=O)N1CCC2(CC1)OCCO2)C1CCCCC1 (stereo unspecified) has z-score reaching or exceeding -0.2?
Response given: Criterion met

Challenge: Is it the case that CON(C)C(=O)Nc1ccc(Cl)cc1 has z-score reaching or exceeding -0.2?
Response given: Criterion met

---

- assay-target: Metabotropic glutamate receptor 8 (Rattus norvegicus)
- assay-notes: mGluR8 Gi/Go-coupled signaling modulation – cell-based, rat, thallium flux, HTS, primary screen (AID 488969)
- experimental-conditions: HEK293 rat mGluR8, GIRK (G protein-gated inwardly rectifying potassium channel) thallium flux, FluoZin2; at 10 µM; stronger effect = higher value
Over roughly 110,000 compounds, “z-score” has its median near -0.1; the highest 2% begin near 2. The sample holds the highest values, similar compounds and a random draw of the others, so the mix is not that of the screen.
attribute-measured: z-score
Answers are plain numbers.

For orientation, consider the following solved cases.
Please fill in: z-score reported for Cc1cc(C=C2C(=O)N(C)C(=S)N(C)C2=O)c(C)n1C1CCCCC1 = -0.45

Please fill in: z-score reported for CC(=O)OC1C2CCC1C(N1CCCC1)CC2 (centres undefined) = -0.278

Please fill in: z-score reported for CC12CCCCC1=[N+]([O-])CN2O (centres undefined) = 0.377

Please fill in: z-score reported for N#Cc1ccc(N2CCNCC2)c(F)c1 = 0.268

Please fill in: z-score reported for CCCCn1c(C)c(C(=O)O)c2cc(OC)ccc21 = -0.364

I'm hoping you can list z-score for every compound here, please.
1. CCN1CC=C(c2c[nH]c3ccccc23)CC1
2. COc1cc(-n2c(=S)[nH]c3ccccc3c2=O)c(Cl)cc1Cl
3. C1=C(c2c[nH]c3ccccc23)CCNC1
4. OC12Oc3ccccc3C=C1N1CCC2CC1 (centres undefined)

Response given:
1. 2.05
2. 6.65
3. 1.29
4. 2.17
